Source of measurements: PubChem BioAssay (NCI)

Recorded growth inhibition by entry
test: NCI Yeast Anticancer Drug Screen. Data for the CLN2oe strain (AID 163);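 note: 0% = growth of vehicle-only control cultures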; conditions: S. cerevisiae CLN2oe strain, at 100.0 µM, hits give high values
Compounds without any hit were thinned out: in the full panel of roughly 79,000, 15% have a hit.
measuredMetric: growth inhibition (%)

# molecule, number
measured = [
    ("Oc1ccc2nc3ccccc3nc2c1", 67),
    ("CC[PH+](CC)CC.CC[PH+](CC)CC.[Au]", 97),
    ("CC1=C(N2CC2)C(=O)c2ccccc2C1=O", 39),
    ("COc1cccc2c1C(=O)c1c(O)c3c(c(O)c1C2=O)C[C@@](O)(C(C)=O)C[C@@H]3OC1CC(N)C(OC2CC(O)C(O)C(C)O2)C(C)O1 (stereo partly specified)", 6),
    ("NC1=NCC(c2ccc(Cl)cc2)O1 (stereo unspecified)", 50),
    ("O=C(O)CCCc1cc(I)c(N(CCCl)CCCl)c(I)c1", 97),
]
